assay.system: CviR (Chromobacterium violaceum, UniProt D3W065)
Sequence (D3W065 1-265): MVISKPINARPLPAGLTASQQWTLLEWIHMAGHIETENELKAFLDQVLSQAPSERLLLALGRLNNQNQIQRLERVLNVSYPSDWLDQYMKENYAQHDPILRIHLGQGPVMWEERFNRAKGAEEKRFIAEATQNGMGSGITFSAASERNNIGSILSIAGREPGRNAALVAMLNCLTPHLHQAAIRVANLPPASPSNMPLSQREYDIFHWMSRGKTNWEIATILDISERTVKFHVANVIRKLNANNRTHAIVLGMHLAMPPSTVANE
condition: CviR expressed in E. coli, whole cell vs soluble extract, ligand 50 μM
recorded.endpoint: CviR folding and solubility in presence of ligand

{"compound": "CCCCCCCCCC(=O)N[C@H]1CCOC1=O [C10-HSL, reference compound]", "recorded.value": "soluble"}
{"compound": "CCCCCC(=O)N[C@H]1CCOC1=O", "recorded.value": "soluble"}

----------
assay.system: LuxN (Vibrio campbellii, UniProt A7MRY4)
Construct: Light production from wild type V. harveyi (BB120), a luxPQ mutant (BB960), and a luxPQ, luxS double mutant (JMH624) was measured; endogenous in cells; host or cells: V. harveyi BB120, BB960 (luxQ::Tn5), JMH624 (ΔluxM, luxQ::Tn5)
Sequence (A7MRY4 whole entry): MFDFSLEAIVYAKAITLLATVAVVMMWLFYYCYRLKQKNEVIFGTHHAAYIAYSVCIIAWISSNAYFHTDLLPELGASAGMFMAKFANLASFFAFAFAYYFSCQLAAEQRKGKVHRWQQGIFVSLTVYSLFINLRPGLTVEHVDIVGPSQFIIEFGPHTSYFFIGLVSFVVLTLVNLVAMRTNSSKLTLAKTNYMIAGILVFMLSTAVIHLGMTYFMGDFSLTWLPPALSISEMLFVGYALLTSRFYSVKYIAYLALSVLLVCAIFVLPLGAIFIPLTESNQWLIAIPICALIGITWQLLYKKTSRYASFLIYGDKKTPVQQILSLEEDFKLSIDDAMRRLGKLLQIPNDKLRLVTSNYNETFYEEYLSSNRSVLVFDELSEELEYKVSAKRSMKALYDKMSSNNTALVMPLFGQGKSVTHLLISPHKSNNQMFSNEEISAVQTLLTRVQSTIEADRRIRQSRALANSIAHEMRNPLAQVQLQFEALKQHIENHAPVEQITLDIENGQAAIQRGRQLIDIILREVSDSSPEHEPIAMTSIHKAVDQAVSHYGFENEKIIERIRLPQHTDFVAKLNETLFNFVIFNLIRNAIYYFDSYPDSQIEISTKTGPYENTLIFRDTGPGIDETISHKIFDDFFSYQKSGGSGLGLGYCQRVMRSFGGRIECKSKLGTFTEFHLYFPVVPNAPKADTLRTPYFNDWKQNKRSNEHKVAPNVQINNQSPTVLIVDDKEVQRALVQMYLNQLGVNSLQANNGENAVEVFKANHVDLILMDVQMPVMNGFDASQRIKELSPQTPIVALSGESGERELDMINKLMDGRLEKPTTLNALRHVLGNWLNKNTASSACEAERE
procedure.summary: V. harveyi bioluminescence dose-response
Type: cell-based, Vibrio harveyi
condition: IC50 for inhibition of bioluminescence, wild type V. harveyi BB120
List of IC50 values.
recorded.endpoint: IC50 (µM)

{"compound": "O=C(CCCOc1ccc(Cl)cc1)NC1CCSC1=O (centres unmarked)", "recorded.endpoint": "IC50", "unit.string": "µM", "recorded.value": 150}
{"compound": "O=C(CCCOc1ccc(Cl)cc1)NC1CCOC1=O (centres unmarked)", "recorded.endpoint": "IC50", "unit.string": "µM", "recorded.value": 40}
